# target_of_assay: COX-1 (Ovis aries, UniProt P05979)
# Sequence (P05979 25-600): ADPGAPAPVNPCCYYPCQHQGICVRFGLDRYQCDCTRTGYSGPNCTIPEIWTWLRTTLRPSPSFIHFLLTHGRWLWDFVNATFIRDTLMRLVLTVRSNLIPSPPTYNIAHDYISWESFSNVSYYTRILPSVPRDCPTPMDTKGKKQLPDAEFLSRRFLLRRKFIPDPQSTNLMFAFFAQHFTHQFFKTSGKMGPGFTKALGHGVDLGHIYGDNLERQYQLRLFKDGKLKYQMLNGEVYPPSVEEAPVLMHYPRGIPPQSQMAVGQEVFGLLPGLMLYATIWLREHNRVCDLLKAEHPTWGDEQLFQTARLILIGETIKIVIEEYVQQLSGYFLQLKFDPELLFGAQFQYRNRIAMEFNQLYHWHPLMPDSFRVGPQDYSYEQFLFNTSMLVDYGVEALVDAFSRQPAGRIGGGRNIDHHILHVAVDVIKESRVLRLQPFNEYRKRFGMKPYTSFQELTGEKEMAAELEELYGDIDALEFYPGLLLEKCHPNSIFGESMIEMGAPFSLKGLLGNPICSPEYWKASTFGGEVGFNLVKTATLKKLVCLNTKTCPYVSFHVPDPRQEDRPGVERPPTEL

molecular_string: Fc1ccccc1-c1ccc(F)c(C(F)(F)F)c1
unit_abbrev: µM
IC50: 11.2

---

# target_of_assay: COX-2 (Ovis aries, UniProt P79208)
# Sequence (P79208 17-603): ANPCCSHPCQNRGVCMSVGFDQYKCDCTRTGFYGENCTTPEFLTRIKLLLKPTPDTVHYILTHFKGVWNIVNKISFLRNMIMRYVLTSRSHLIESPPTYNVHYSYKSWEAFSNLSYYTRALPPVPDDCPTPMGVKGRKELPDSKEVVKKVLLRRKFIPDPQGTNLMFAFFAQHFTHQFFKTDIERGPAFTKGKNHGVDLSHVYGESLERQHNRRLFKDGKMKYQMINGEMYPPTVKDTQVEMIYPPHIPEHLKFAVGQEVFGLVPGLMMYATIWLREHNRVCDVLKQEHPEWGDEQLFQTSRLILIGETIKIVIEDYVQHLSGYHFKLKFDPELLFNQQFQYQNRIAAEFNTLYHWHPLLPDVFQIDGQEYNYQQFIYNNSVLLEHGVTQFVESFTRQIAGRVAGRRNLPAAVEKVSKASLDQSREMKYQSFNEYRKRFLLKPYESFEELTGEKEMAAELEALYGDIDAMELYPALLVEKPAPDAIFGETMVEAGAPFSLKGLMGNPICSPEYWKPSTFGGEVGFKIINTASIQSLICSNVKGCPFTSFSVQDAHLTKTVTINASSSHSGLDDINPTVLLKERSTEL
# protocol: In vitro COX-2 inhibition, colorimetric enzyme immune assay
# Assay type: biochemical, ovine
# test_context: in vitro COX-2 selectivity index
Think of 70 as a floor: if COX-2 SI (COX-1 IC50/COX-2 IC50) stands on it or above, it is true (1); beneath it, false (0).

molecular_string: COc1ccccc1-c1ccc([N+](=O)[O-])cc1
class_label: false (0)
//
molecular_string: Fc1ccc(-c2ccccc2F)cc1OC(F)(F)F
class_label: true (1)
//
molecular_string: COc1ccccc1-c1ccc(F)c(C(F)(F)F)c1
class_label: true (1)
//
molecular_string: Fc1ccccc1-c1ccc(F)c(C(F)(F)F)c1
class_label: true (1)
//
molecular_string: COc1ccccc1-c1cccc([N+](=O)[O-])c1F
class_label: false (0)
//
molecular_string: O=[N+]([O-])c1ccc(-c2ccccc2F)cc1
class_label: true (1)
//
molecular_string: COc1ccccc1-c1ccc(F)c(OC(F)(F)F)c1
class_label: false (0)
